assay comment: Solubility in sodium phosphate buffer at pH 7.4
Type: physicochemical
measured endpoint: solubility (µg/mL)

| chem smiles | modifier sign | recorded measurement |
| --- | --- | --- |
| CCCCCCCCc1ccc(OCC(=O)COc2ccc3[nH]c(C(=O)O)cc3c2)cc1 | = | 8.4 |
| CCCCCCCCc1ccc(OCC(=O)COc2ccc3c(c2)cc(C(=O)O)n3CCN(C)C)cc1 | = | 46 |
| CCCCCCCCc1ccc(OCC(=O)COc2ccc3c(c2)cc(C(=O)O)n3CC(=O)O)cc1 | = | 8.1 |
| CCCCCCCCc1ccc(OCC(=O)COc2ccc3c(c2)cc(C(=O)O)n3CCC)cc1 | < | 1 |
| CCCCCCCCc1ccc(OCC(=O)COc2ccc3c(c2)cc(C(=O)O)n3Cc2ccc(C(=O)O)cc2)cc1 | = | 13 |
| CCCCCCCCc1ccc(OCC(=O)COc2ccc3c(c2)cc(C(=O)O)n3CCCCCC(=O)O)cc1 | = | 17 |
| CCCCCCCCc1ccc(OCC(=O)COc2ccc3c(c2)cc(C(=O)O)n3C)cc1 | < | 1 |
| CCCCCCCCc1ccc(OCC(=O)COc2ccc3c(c2)cc(C(=O)O)n3CCCC(=O)O)cc1 | = | 30 |
| CCCCCCCCc1ccc(OCC(=O)COc2ccc3c(c2)cc(C(=O)O)n3Cc2ccccc2)cc1 | < | 1 |
| CCCCCCCCc1ccc(OCC(=O)COc2ccc3c(c2)cc(C(=O)O)n3CCCCCC)cc1 | < | 1 |
